# Tested on: human Factor 7 mRNA
# protocol-summary: Antisense inhibition of human Factor 7 mRNA in HepB3 cells, 50 nM antisense oligonucleotide, lipofectin
# Format: cell-based
# condition-context: gapmers targeted to nucleobases 4868 to 4899 of SEQ ID NO: 1, Table 8
Strand notation (5' to 3'): a small letter for the sugar, then the base; units joined by * are phosphorothioate-linked, units joined directly phosphodiester-linked; [ ] holds rarer units or linkages, { } end groups; capitals alone tell only the bases. e = 2'-O-(2-methoxyethyl) (MOE); [5mC] = 5-methylcytosine; d = 2'-deoxy (DNA)
measurement-kind: % Inhibition of human Factor 7 mRNA levels
I'd appreciate it if you included the unit after the number.

Example entries and their recorded answers appear below.
INSERT INTO assay_data (substance, endpoint_value) VALUES
  ('422142 (antisense eG*eA*eG*eT*eT*d[5mC]*dT*dG*d[5mC]*dA*dG*dG*dA*dG*d[5mC]*eG*eG*e[5mC]*e[5mC]*eT) [compound 422142]', '73%'),
  ('422222 (antisense eA*eG*e[5mC]*d[5mC]*d[5mC]*dG*dA*dG*dT*dT*d[5mC]*dT*dG*d[5mC]*dA*dG*dG*eA*eG*e[5mC]) [compound 422222]', '55%');

Please find the next substance below.
State, for human Factor 7 mRNA, measured % Inhibition of human Factor 7 mRNA levels of the substance listed here: 416508 (antisense e[5mC]*eG*eA*eG*eT*dT*d[5mC]*dT*dG*d[5mC]*dA*dG*dG*dA*dG*e[5mC]*eG*eG*e[5mC]*e[5mC]) [compound 416508]
67%

---

# Test system: human Factor 7 mRNA
# protocol-summary: Antisense inhibition of human Factor 7 mRNA in HepB3 cells, 50 nM antisense oligonucleotide, lipofectin
# Type: cell-based
# condition-context: lipofectin, 50 nM antisense oligonucleotide, approximately 24 hours, Factor 7 mRNA by real-time RT-PCR (RTS 2927), relative to untreated control
Strand notation (5' to 3'): a small letter for the sugar, then the base; units joined by * are phosphorothioate-linked, units joined directly phosphodiester-linked; [ ] holds rarer units or linkages, { } end groups; capitals alone tell only the bases. e = 2'-O-(2-methoxyethyl) (MOE); [5mC] = 5-methylcytosine; d = 2'-deoxy (DNA)
Entry flag: 1 (yes) if % Inhibition reaches 40%; 0 (no) if it does not.

INSERT INTO assay_data (substance, group) VALUES
  ('416540 (antisense eG*eG*eA*e[5mC]*eT*dG*dG*dT*dG*dT*d[5mC]*dA*dT*d[5mC]*dT*eG*eG*eG*eA*e[5mC]) [compound 416540]', '0 (no)');

Could you verify whether the entry 416502 (antisense eG*eT*eT*e[5mC]*eT*dT*dT*dG*dA*dA*dA*dA*dA*dT*dA*eA*eT*e[5mC]*e[5mC]*e[5mC]) [compound 416502] shows % Inhibition of no less than 40%?
0 (no)

Hi team, for 416444 (antisense eA*e[5mC]*eA*eG*eT*dT*d[5mC]*d[5mC]*dG*dG*d[5mC]*d[5mC]*d[5mC]*dT*d[5mC]*eG*eA*eA*eG*eG) [compound 416444] , is the recorded % Inhibition at or above 40%?
0 (no)

Threshold query (% Inhibition >= 40%) on 416452 (antisense e[5mC]*e[5mC]*eA*eA*e[5mC]*dA*dA*d[5mC]*dA*dG*dG*dA*d[5mC]*d[5mC]*dT*eG*e[5mC]*e[5mC]*eA*eT) [compound 416452]
0 (no)

Hi team, for 416566 (antisense eG*eT*eT*eT*eG*dT*dA*dT*dG*dG*dA*dG*dA*dG*dA*e[5mC]*e[5mC]*eA*eA*eT) [compound 416566] , is the recorded % Inhibition at or above 40%?
0 (no)

Say whether 416524 (antisense eT*eA*eA*eT*eT*dT*dA*dA*dT*dA*dT*dT*d[5mC]*dA*dG*eA*eT*eG*eG*eT) [compound 416524] shows % Inhibition of 40% or more.
0 (no)

Does the substance 416446 (antisense eG*eG*eT*e[5mC]*eA*d[5mC]*dT*dG*d[5mC]*dA*dG*dT*dA*d[5mC]*dT*eG*e[5mC]*eT*e[5mC]*eA) [compound 416446] have recorded % Inhibition that is 40% or more?
1 (yes)

# check: % Inhibition of 416491 (antisense eG*eA*eG*eA*eA*dG*dG*dG*dT*dT*dG*d[5mC]*dA*dG*dG*e[5mC]*eA*eG*eG*eA) [compound 416491] is greater than or equal to 40%
0 (no)

Is the recorded value of % Inhibition equal to or greater than 40% for this substance? 416436 (antisense eA*e[5mC]*eT*eG*eG*dT*d[5mC]*d[5mC]*d[5mC]*d[5mC]*dA*dT*d[5mC]*dA*d[5mC]*eT*eG*eT*eA*eA) [compound 416436]
0 (no)

Answer whether % Inhibition of 416497 (antisense e[5mC]*eG*eT*eG*e[5mC]*dA*dG*dG*dT*dG*dT*dT*dA*dA*dG*eG*eT*eG*eT*eG) [compound 416497] is greater than or equal to 40%.
0 (no)

Does % Inhibition meet or surpass 40% for 416512 (antisense eG*eA*e[5mC]*eG*eA*d[5mC]*d[5mC]*dT*dT*dT*dG*d[5mC]*dT*dG*dG*eG*eA*eG*eG*eA) [compound 416512] ?
1 (yes)

Does % Inhibition meet or surpass 40% for 416508 (antisense e[5mC]*eG*eA*eG*eT*dT*d[5mC]*dT*dG*d[5mC]*dA*dG*dG*dA*dG*e[5mC]*eG*eG*e[5mC]*e[5mC]) [compound 416508] ?
1 (yes)

Is % Inhibition at least 40%? Consider 416482 (antisense e[5mC]*eA*eT*eG*eG*dT*dG*dA*dT*dG*d[5mC]*dT*dT*d[5mC]*dT*eG*eA*eA*eT*eT) [compound 416482]
1 (yes)

Check this substance for % Inhibition at or above 40%: 416448 (antisense eT*eT*eT*eT*eT*d[5mC]*d[5mC]*dA*d[5mC]*dA*dT*dG*dG*dA*dT*eA*eT*eT*e[5mC]*eA) [compound 416448]
0 (no)

Assess whether reported % Inhibition for 416480 (antisense eA*eA*eG*eT*eG*dA*dG*dA*dG*d[5mC]*dT*dA*dA*dA*d[5mC]*eA*eA*e[5mC]*e[5mC]*eG) [compound 416480] sits at 40% or higher.
0 (no)

Record 416465 (antisense e[5mC]*eA*e[5mC]*eT*eG*dT*d[5mC]*d[5mC]*d[5mC]*d[5mC]*d[5mC]*dT*dT*dG*d[5mC]*eA*eG*eG*eA*eG) [compound 416465] ; criterion: % Inhibition no lower than 40%. Met?
1 (yes)

Is it the case that 416521 (antisense e[5mC]*eA*e[5mC]*e[5mC]*e[5mC]*d[5mC]*dA*d[5mC]*d[5mC]*dA*dG*dG*dT*dT*dG*eT*eG*e[5mC]*eA*e[5mC]) [compound 416521] has % Inhibition reaching or exceeding 40%?
0 (no)

Does the substance 416492 (antisense eG*eG*eA*eT*e[5mC]*dA*dT*dT*d[5mC]*dT*dG*dG*d[5mC]*d[5mC]*d[5mC]*eT*eG*eA*eG*e[5mC]) [compound 416492] have recorded % Inhibition that is 40% or more?
0 (no)

Reported % Inhibition reaches at least 40% for 416564 (antisense eG*e[5mC]*e[5mC]*eA*e[5mC]*dT*d[5mC]*dA*d[5mC]*dA*dG*dA*dA*dA*dG*e[5mC]*eT*eG*eG*eA) [compound 416564] ?
0 (no)

Assess whether reported % Inhibition for 416563 (antisense eG*e[5mC]*e[5mC]*eT*eG*d[5mC]*dA*dT*dT*dT*d[5mC]*d[5mC]*d[5mC]*dA*dT*eT*eG*eG*e[5mC]*eA) [compound 416563] sits at 40% or higher.
0 (no)

Confirm if % Inhibition reported for the substance 416518 (antisense eG*eG*eG*eT*eG*dA*d[5mC]*d[5mC]*dA*d[5mC]*dA*d[5mC]*dA*dT*dT*eT*e[5mC]*e[5mC]*eT*eG) [compound 416518] is 40% or above.
1 (yes)

---

# Test system: human Factor 7 mRNA
# protocol-summary: Antisense inhibition of human Factor 7 mRNA in HepB3 cells, 50 nM antisense oligonucleotide, lipofectin
# Format: cell-based
# condition-context: gapmers targeted to nucleobases 4868 to 4899 of SEQ ID NO: 1, Table 8
Strand notation (5' to 3'): a small letter for the sugar, then the base; units joined by * are phosphorothioate-linked, units joined directly phosphodiester-linked; [ ] holds rarer units or linkages, { } end groups; capitals alone tell only the bases. e = 2'-O-(2-methoxyethyl) (MOE); [5mC] = 5-methylcytosine; d = 2'-deoxy (DNA)
% Inhibition of human Factor 7 mRNA levels vs 70%: at or above is true (1), below is false (0).

Worked examples follow.
INSERT INTO results (substance, group) VALUES
  ('422220 (antisense e[5mC]*e[5mC]*e[5mC]*dG*dA*dG*dT*dT*d[5mC]*dT*dG*d[5mC]*dA*dG*dG*dA*dG*e[5mC]*eG*eG) [compound 422220]', 'false (0)'),
  ('422294 (antisense eG*eA*dG*dT*dT*d[5mC]*dT*dG*d[5mC]*dA*dG*dG*dA*dG*d[5mC]*eG*eG*e[5mC]*e[5mC]*eT) [compound 422294]', 'true (1)'),
  ('422295 (antisense e[5mC]*eG*dA*dG*dT*dT*d[5mC]*dT*dG*d[5mC]*dA*dG*dG*dA*dG*e[5mC]*eG*eG*e[5mC]*e[5mC]) [compound 422295]', 'true (1)'),
  ('422292 (antisense eG*eT*dT*d[5mC]*dT*dG*d[5mC]*dA*dG*dG*dA*dG*d[5mC]*dG*dG*e[5mC]*e[5mC]*eT*eA*eA) [compound 422292]', 'true (1)');

Please check the record 422139 (antisense eT*eT*e[5mC]*eT*eG*d[5mC]*dA*dG*dG*dA*dG*d[5mC]*dG*dG*d[5mC]*e[5mC]*eT*eA*eA*eA) [compound 422139] and state if its % Inhibition of human Factor 7 mRNA levels is at or above 70%.
false (0)

Decide: % Inhibition of human Factor 7 mRNA levels of 422221 (antisense eG*e[5mC]*e[5mC]*d[5mC]*dG*dA*dG*dT*dT*d[5mC]*dT*dG*d[5mC]*dA*dG*dG*dA*eG*e[5mC]*eG) [compound 422221] >= 70%?
false (0)
